- Test system: MDA-MB-231 breast
- MEASUREMENT NOTES: NCI tumour cell line growth inhibition, 48 h
Below: a set of entries, each annotated with reported TGI.
Numeric answer only, unit µM assumed.

These recorded examples may help you get a feel for the data.
{"SMILES CODE": "O=C(CSc1ccc(Cl)cc1)Nc1ccc(-c2nc3ccccc3s2)c(Cl)c1", "READOUT UNITS": "µM", "TGI": 23.6}
{"SMILES CODE": "CN(C)c1ccc(C(=N/N=C2\\C(=O)Nc3ccccc32)c2ccc(N(C)C)cc2)cc1", "READOUT UNITS": "µM", "TGI": 13.1}
{"SMILES CODE": "O=[N+]([O-])c1ccc(Oc2c(Cl)cc(S(=O)(=O)/N=C(\\NO)Nc3ccc(Cl)cc3)cc2Cl)cc1", "READOUT UNITS": "µM", "TGI": 25.3}

// next item, TGI requested
Exercise: Enter measured TGI, system MDA-MB-231 breast, for the compound shown: ClCc1cccc(Cn2cnc3ncnc(Cl)c32)c1
Solution: 3.4
